Measured parameter: melting point

Compound: O=C(C[C@@H](c1cc(F)cc(F)c1)C(F)(F)F)N1C(=O)OC[C@@H]1Cc1ccccc1
Reading: 127 to 128 °C

Compound: CN(c1cccc2cc(C3=NCC4(CCOCC4)S3)[nH]c12)S(=O)(=O)c1cccs1
Reading: 189 to 191 °C

Compound: COC(CN(C)C(=O)Nc1nnc(C(C)Oc2cc(Cl)cc(Cl)c2)s1)OC (stereo not given)
Reading: 149 to 152 °C

Compound: CN(C)C(=O)c1ccccc1CC(=O)Nc1cccc(/C=C/c2nc(C3CCC3)cs2)c1
Reading: 125 to 127 °C

Kindly consider the entry below.
For record COC(=O)Nc1nccc(Oc2ccc3c(C(=O)Nc4ccc(F)c(C(F)(F)F)c4)cccc3c2)n1 the listed melting point is 204 to 205 °C

* * *

Reported values of melting point for individual entries

A selection of reference data follows.
Compound: Cc1nc(NN)c2c(n1)NC(=O)CO2
Measured parameter: melting point
Reading: 262 to 264 °C
--
Compound: NCCCC(O)c1ccccc1 (stereo unspecified)
Measured parameter: melting point
Reading: 94 to 96 °C
--
Compound: Cc1cccc2c(=O)c3cccc(CBr)c3oc12
Measured parameter: melting point
Reading: 171 to 172 °C
--
Compound: O=c1cc2ccccc2c[nH]1
Measured parameter: melting point
Reading: 201 °C

For record CN(C)C(=O)n1nc2cc(Cl)ccc2c1N the listed melting point is 178 to 180 °C

For record CCCCc1nc(Cl)c(C(=O)OC)n1Cc1ccc2oc(-c3ccccc3-c3nnn[nH]3)c(Br)c2c1 the listed melting point is 110 to 112 °C

For record Cc1cc(C(C)(O)c2ccc(C(F)(F)F)cn2)ccc1NC(=O)OC(C)(C)C (stereo unspecified) the listed melting point is 132 to 134 °C

For record COc1cc(OC)nc(Oc2ccccc2C(=O)NS(=O)(=O)C(C)C)n1 the listed melting point is 128 to 130 °C

For record COC(=O)c1snc(-c2cccc(C)c2)c1C(=O)OC the listed melting point is 53 to 54.5 °C

For record CCC(CC)C(=O)OCOC(=O)C1=C(S[C@H]2CC[S@@](=O)C2)S[C@@H]2[C@@H]([C@@H](C)O)C(=O)N12 the listed melting point is 105 °C

For record CSC(=S)c1cccc([N+](=O)[O-])c1 the listed melting point is 38 °C

* * *

Measured parameter: melting point

Molecule: O=C(O)c1ccc(OCc2ccccc2)c(OCc2ccccc2)c1
melting point: 184 to 185 °C
//
Molecule: CC(=O)C(CCCCCCc1ccc(O)cc1)C(C)=O
melting point: 68 to 69 °C

For record COc1ccc(OCc2ccccc2)cc1C=O the listed melting point is 99 to 100 °C

For record CC(=O)Nc1c(C)nn(C)c1C the listed melting point is 118 to 119 °C

* * *

Measured parameter: melting point

Compound: C=CCOc1ccc(C#N)cc1
melting point: 41.6 °C
--
Compound: CS(=O)(=O)Nc1ccc(OCCCI)cc1
melting point: 109 to 111 °C
--
Compound: COc1ccc(CCNC(C)=O)cc1OC
melting point: 99 to 100 °C
--
Compound: COc1cc(CCCC2OC(=O)NC2=O)ccc1OCc1nc(-c2ccccc2)oc1C (stereo unspecified)
melting point: 161 to 162 °C
--
Compound: COCCOc1cc2ncc(C#N)c(Nc3cc(OC)c(Cl)cc3Cl)c2cc1OC
melting point: 210 to 212 °C
--
Compound: O=C(Cl)Oc1ccc(-c2ccccc2)cc1
melting point: 36 °C
--
Compound: CCCCc1ccc(S(=O)(=O)CC(O)(CS(=O)(=O)c2ccc(OC)cc2)C(=O)NO)cc1 (stereo unspecified)
melting point: 63 to 68 °C
--
Compound: O=C(N1CCOCC1)C(Cl)(c1ccccc1)c1ccccc1
melting point: 113 °C

For record O=[N+]([O-])c1ccc(NN=Cc2ncc[nH]2)nc1 the listed melting point is 268 to 269 °C

For record CC(=O)N1N=C2C(=Cc3cccc(C(F)(F)F)c3)CS(=O)(=O)CC2C1c1cccc(C(F)(F)F)c1 (stereo unspecified) the listed melting point is 200 to 202 °C

For record O=C(O)c1ccc2c(c1)C=C(n1ccnc1)CC2 the listed melting point is 323 to 326 °C

* * *

Measured parameter: melting point

Compound: O=C(N[C@H]1CC[C@H](CCN2CCN(c3nccc4c3CCO4)CC2)CC1)c1ccc(F)cc1
Reading: 210 °C
--
Compound: CCC1CCC2C3CCC4CC(O)CCC4(C)C3C(N(C)C)CC12C (stereo unspecified)
Reading: 147 to 150 °C
--
Compound: Cc1cc(-c2c(-c3ccccc3)nc3ccc(N4CCC5(CCCNC5)CC4)nn23)ccn1
Reading: 175 to 179 °C
--
Compound: CCc1nn(C(C)C)c2cc(C(=O)O)ccc12
Reading: 160 to 163 °C

For record CCOc1nn(Cc2ccc(OCc3nc4ccccc4n3C)cc2)cc1CCC(=O)O the listed melting point is 177 to 178 °C

For record NCCC(O)(c1ccc(-c2ccccc2)cc1)c1ccc(-c2ccccc2)cc1 the listed melting point is 176 to 178 °C

* * *

Measured parameter: melting point

Molecule: CCOC(=O)C=Cc1c(C)cc(OC)c(C)c1C
melting point: 42 to 44 °C
--
Molecule: O=C(O)Cn1c(=O)c(=O)[nH]c2cc([N+](=O)[O-])c(-n3ccc(CN4CCCCC4)c3)cc21
melting point: > 250 °C
--
Molecule: CCOC(=O)C1=C(N)NC2=C(C(=O)CCC2)C1c1ccccc1C#N (stereo unspecified)
melting point: 165 °C
--
Molecule: CC(=O)SCCC(=O)N1CCC[C@H]1C(=O)O
melting point: 89 to 90 °C
--
Molecule: S=C1Nc2ccccc2CN(c2ccccc2)N1
melting point: 242 to 244 °C

For record COc1ccc2c(c1)Cc1ccc(C(=O)O)cc1O2 the listed melting point is 259 to 261 °C

For record COC(=O)C1(n2c(=O)[nH]c3ccccc3c2=O)CCCC1 the listed melting point is 164 to 165 °C

For record COc1ccc2c(c1)c(=O)c(CSC)cn2C the listed melting point is 122 to 123 °C

* * *

Reported values of melting point for individual entries

A selection of reference data follows.
Compound: Cc1cn2cccc(OCc3ccc(F)cc3)c2n1
melting point: 137 °C

Compound: CS(=O)(=O)c1cccc(-n2c(=O)n(Cc3ccncc3)c(=O)c3cccnc32)c1
melting point: 254 to 256 °C

Compound: CCOC(=O)CC(=O)c1cc(Oc2ccccc2)c(NS(C)(=O)=O)cc1OCc1ccccc1
melting point: 85 to 90 °C

Compound: c1nnc2c3c(c(NCCCCN4CCCC4)nn12)CCCC3
melting point: 158 to 160 °C

Compound: CCOC(=O)CN1CCN(CC(O)COc2cc3c(Nc4cccc(Br)c4)ncnc3cc2OC)CC1 (stereo not given)
melting point: 118 to 122 °C

Compound: CN(C)C1CCN(CCc2ccc(-c3cccc(N)n3)cc2)CC1
melting point: 174 to 176 °C

Compound: CCCC(=O)ONC(=N)c1ccc(NC(=O)CCCC(=O)Nc2ccc(C(=N)NOC(=O)CCC)cc2)cc1
melting point: 194 to 196 °C

Compound: O=C(CCC#Cc1ccccn1)Nc1cccc(Cl)c1
melting point: 168 to 169 °C

Compound: Cc1cccc2c(=O)[nH]c(CCN3CC[C@H](O)C3)cc12
melting point: 176 to 178 °C

Compound: CS(=O)(=O)CCCC(=O)NNC(=O)N1Cc2ccccc2Oc2ccc(Cl)cc21
melting point: 198 to 199 °C

For record CC(=O)Oc1c(C)cc2c(c1C)C(C)CN2C(=O)C(C)C (stereo not given) the listed melting point is 118 to 120 °C

For record CNC(=S)n1nc(Nc2ccccc2)nc1N the listed melting point is 196 to 198 °C

For record CCOC(OCC)N1C(=O)OC(C)(C)c2cc(-c3cc(F)cc(C#N)c3)ccc21 the listed melting point is 123 to 124 °C

For record CCOc1ccc2c(c1)C(C)=CC(C)(C)N2C(=O)Cl the listed melting point is 75.5 to 76.5 °C

For record Nc1ncnc2c1ncn2[C@@H]1C[C@H](O)[C@@H](O)[C@H]1O (racemic) the listed melting point is 282 °C

* * *

Reported values of melting point for individual entries

Compound: CCCCCCCC/C=C\CCCCCCCC(=O)OCC1(CO)CCC(=O)O1 (stereo not given)
melting point: 38.5 to 39.5 °C
//
Compound: CCOC(=O)COc1ccc(N2CCN(S(=O)(=O)c3ncn(C)c3Cl)CC2)cc1
melting point: 148 to 149 °C
//
Compound: Cc1cccc(Nc2ncccc2[N+](=O)[O-])n1
melting point: 153 to 154 °C
//
Compound: CN(C)C(=O)N(C)C(=O)Nc1ccccc1
melting point: 89.5 to 90.5 °C
//
Compound: Cc1c(Cl)ccc2c3c([nH]c12)[C@@]1(CC(=O)O)CC[C@H]1CC3 (relative stereo)
melting point: 189 to 190 °C
//
Compound: COc1ccc(NC(=O)c2ccccc2F)cc1
melting point: 83.1 to 84.3 °C
//
Compound: O=C(Nc1ccc(-n2nc(C(F)(F)F)cc2C(F)(F)F)cc1)c1cccnc1
melting point: 185 to 188 °C
//
Compound: CCCC1CCC(C)C(CCC2CC(O)CC(=O)O2)C1COC(=O)C(C)(C)CC (stereo not given)
melting point: 128 to 130 °C
//
Compound: COc1ccc2ccc(N3C(=O)c4ccccc4C3CC(=O)CCC(C)C)nc2n1 (stereo not given)
melting point: 150 °C

For record CCCCC(=O)N(Cc1ccc(-c2ccccc2-c2nc(=O)o[nH]2)cc1)c1sccc1C(=O)OC the listed melting point is 154 to 155 °C
